Value source: paper PMC11538350

I'd appreciate it if you could supply T1/2 MICROSOMES (M) values for the items below.
protocol.description: metabolic stability assay, human microsomes
test.context: second microsome column of Table S4, head prints (M); mouse and human microsomes

Lab note: each compound below needs its T1/2 MICROSOMES (M) filled in.
1. C#CC[C@H](NC(=O)c1ccc(NC(=O)c2ccc(C#N)cc2)cc1)C(=O)Nc1ccc(C(=O)Nc2ccc(C(=O)Nc3ccc(C(=O)O)cc3)c(O)c2CC(C)C)cc1 [Cmpd. 11]
2. C#CC[C@H](NC(=O)c1ccc(NC(=O)c2ccc(C#N)cc2)cc1)C(=O)Nc1ccc(C(=O)Nc2ccc(C(=O)Nc3ccc(C(=O)O)cc3)nc2OC(C)C)cc1 [Cmpd. 8]
3. C#CC[C@H](NC(=O)c1ccc(NC(=O)c2ccc(C#N)cc2)cc1)C(=O)Nc1ccc(NC(=O)c2ccc(C(=O)Nc3ccc(C(=O)O)cc3)c(O)c2OC(C)C)cc1 [Cmpd. 42]
4. C#CC[C@H](NC(=O)c1ccc(NC(=O)c2ccc(C#N)cc2)cc1)C(=O)Nc1ccc(C(=O)Nc2ccc(C(=O)Nc3ccc(C(=O)O)cc3)c(N)c2OC(C)C)cc1 [Cmpd. 7]
5. C#CC[C@H](NC(=O)c1ccc(NC(=O)c2ccc(C#N)cc2)cc1)C(=O)Nc1ccc(C(=O)Nc2ccc(C(=O)Nc3ccc(C(=O)O)cc3)c(F)c2OC(C)C)cc1 [Cmpd. 4]

Reply:
1. > 1 h
2. > 1 h
3. > 1 h
4. > 1 h
5. > 1 h
